Target: human recombinant 15-PGDH (Homo sapiens, UniProt P15428)
Sequence (P15428 whole entry): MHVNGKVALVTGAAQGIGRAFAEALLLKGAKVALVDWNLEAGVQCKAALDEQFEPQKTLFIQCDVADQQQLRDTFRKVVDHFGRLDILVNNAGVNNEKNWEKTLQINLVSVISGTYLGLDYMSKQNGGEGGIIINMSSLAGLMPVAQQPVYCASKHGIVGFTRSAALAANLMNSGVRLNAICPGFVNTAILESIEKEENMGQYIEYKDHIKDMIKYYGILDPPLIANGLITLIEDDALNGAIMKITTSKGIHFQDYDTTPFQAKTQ
Assay: Recombinant 15-PGDH enzymatic inhibition assay (PGDH-Lumi, NADH signal)
Conditions: recombinant 15-PGDH; 15 min pre-incubation, 60 min reaction with PGE2 and NAD+, NADH signal
pIC50: −log10 of the molar value.
The entries below are paired with their reported pIC50.
Metric: pIC50

Molecule	Metric	Quantitative readout
CO[C@]1(C(F)(F)F)C[C@@](O)(c2cc3ccc(-c4cnc5nn(C)cc5c4)nc3s2)C1 (single isomer, unassigned) [Compound C66C]	pIC50	9.07
Cn1cc2cc(-c3ccc4cc([C@H](O)C5CCOCC5)sc4n3)cnc2n1 (single isomer, unassigned) [Compound B15R]	pIC50	9.40
CCC(O)(c1cc2ccc(-c3cnc4nn(C)cc4c3)nc2s1)C(F)(F)F (stereo not shown)	pIC50	6.26
Cn1cc2cc(-c3ccc4cc([C@H](O)[C@H]5C[C@@H](C(F)(F)F)C5)sc4n3)cnc2n1 (single isomer, unassigned) [Compound B84RC]	pIC50	9.33
Cc1nc2ccc(-c3ccc4cc(C5(O)CC(F)(F)C5)sc4n3)cc2o1	pIC50	8.00
CCn1cc2cc(-c3ccc4cc([C@H](O)C5CC(F)(F)C5)sc4n3)cnc2n1 (single isomer, unassigned) [Compound B53R]	pIC50	9.65
Cc1cn2ccc(-c3ccc4cc([C@H](O)C5CC(F)(F)C5)sc4n3)cc2n1 (single isomer, unassigned) [Compound B55R]	pIC50	9.51
OC1(c2cc3ccc(-c4ccc5[nH]ncc5c4)nc3s2)CC(F)(F)C1	pIC50	7.62
CC(C)n1ncc2cc(-c3ccc4cc(C(O)C5CC(F)(F)C5)sc4n3)cnc21 (stereo not shown)	pIC50	9.03
Cn1cc2cc(-c3ccc4cc([C@@H](O)[C@H]5C[C@@H](C(F)(F)F)C5)sc4n3)cnc2n1 (single isomer, unassigned) [Compound B84SC]	pIC50	8.82
Cn1cc2cc(-c3ccc4cc(C(O)C5COC5)sc4n3)cnc2n1 (stereo not shown)	pIC50	9.33
Cc1cn2ccc(-c3ccc4cc(C5(O)CC(F)(F)C5)sc4n3)cc2n1	pIC50	8.12
Cn1cc2cc(-c3ccc4cc(C(O)[C@H]5CCOC5)sc4n3)cnc2n1 (single isomer, unassigned) [B19(RS)S]	pIC50	9.20
Cn1cc2cc(-c3ccc4cc([C@H](O)[C@H]5CCC5(F)F)sc4n3)cnc2n1 (single isomer, unassigned) [Compound B94RR]	pIC50	9.47
Cn1ncc2cc(-c3ccc4cc([C@@H](O)C5CCOCC5)sc4n3)cnc21 (single isomer, unassigned) [Compound B35S]	pIC50	6.83
Cn1cc2cc(-c3ncc4cc([C@H](O)C5CC(F)(F)C5)sc4n3)cnc2n1 (single isomer, unassigned) [Compound B75R]	pIC50	9.42
CC(C)n1cc2cc(-c3ccc4cc([C@H](O)C5CC(F)(F)C5)sc4n3)cnc2n1 (single isomer, unassigned) [Compound B64R]	pIC50	9.49
Cn1cc2cc(-c3ccc4cc(C(O)C5CCC5)sc4n3)cnc2n1 (stereo not shown)	pIC50	9.42
Cn1ccc2cc(-c3ccc4cc([C@@H](O)C5CC(F)(F)C5)sc4n3)ccc2c1=O (single isomer, unassigned) [Compound B50S]	pIC50	8.73
Cn1cc2cc(-c3ccc4cc([C@@H](O)C5CCC(F)(F)CC5)sc4n3)cnc2n1 (single isomer, unassigned) [Compound B31S]	pIC50	8.25
O[C@H](c1cc2ccc(-c3ccc4nccnc4c3)nc2s1)C1CC(F)(F)C1 (single isomer, unassigned) [Compound B52S]	pIC50	8.80
Cn1cc2cc(-c3ncc4cc(C5(O)CC(C)(C)C5)sc4n3)cnc2n1	pIC50	9.21
Cn1nnc2cc(-c3ccc4nc([C@]5(O)C[C@H](OC(F)(F)F)C5)sc4n3)cnc21 [Compound C112C]	pIC50	9.23
CO[C@]1(C)C[C@@](O)(c2cc3cnc(-c4cnc5nn(C)cc5c4)nc3s2)C1 (single isomer, unassigned) [Compound C118C]	pIC50	9.25
Cn1cc2cc(-c3ccc4cc(C5(O)CC6(CC6)C5)sc4n3)cnc2n1	pIC50	9.55
Cn1cc2cc(-c3ccc4cc([C@@H](O)[C@H]5CCC5(F)F)sc4n3)cnc2n1 (single isomer, unassigned) [Compound B94SR]	pIC50	9.19
OC1(c2cc3ccc(-c4ccc5oncc5c4)nc3s2)CC(F)(F)C1	pIC50	7.46
Cn1cc(-c2ncc3cc([C@]4(O)C[C@@H](C(F)(F)F)C4)sc3n2)cn1 [Compound C120C]	pIC50	7.00

Cited source: patent US20240409557A1
